- System: Mus musculus
- assay procedure: Percentage efficacy to normalize the blood glucose levels to that of normal mouse in ob/ob mouse after 3 days and 4 hours of 100 mg/kg dose administration.
- Type: functional
Listed here are compounds together with their documented Efficacy.
Give the value in % but do not write % after it.

[
  {
    "compound": "CN(C)C(=O)Cc1cn(-c2cccc(C(F)(F)F)c2)nc1-c1ccc2c(c1)C(C)(C)c1ccccc1-2",
    "Efficacy, %": 67
  },
  {
    "compound": "CN(C)C(=O)Cc1cn(-c2cccc(C(F)(F)F)c2)nc1-c1ccc2c(c1)Cc1ccccc1C2",
    "Efficacy, %": 79
  },
  {
    "compound": "CN(C)C(=O)Cc1cn(-c2cccc(C(F)(F)F)c2)nc1-c1ccc2c(c1)Cc1ccccc1-2",
    "Efficacy, %": 87
  }
]

Form field Efficacy, entry CC(=O)OC1c2ccccc2-c2ccc(-c3nn(-c4cccc(C(F)(F)F)c4)cc3CC(=O)N(C)C)cc21 (stereo not drawn) : 95

Form field Efficacy, entry O=C(Cc1cn(-c2cccc(C(F)(F)F)c2)nc1-c1ccc(Cl)c(Cl)c1)N(Cc1ccccc1)Cc1ccccc1 : 52

Form field Efficacy, entry CN(C)C(=O)Cc1cn(-c2cccc(C(F)(F)F)c2)nc1-c1ccc2c(c1)Cc1ccccc1O2 : 65

Form field Efficacy, entry CN(C)C(=O)Cc1cn(-c2cccc(C(F)(F)F)c2)nc1-c1ccc2c(ccc3ccccc32)c1 : 90

Form field Efficacy, entry CN(C)C(=O)Cc1cn(-c2cccc(C(F)(F)F)c2)nc1-c1ccc2c(c1)C(=O)c1ccccc1-2 : 107

---

- Tested on: Mus musculus
- assay procedure: Percentage efficacy to normalize the blood glucose levels to that of normal mouse in ob/ob mouse after 3 days and 4 hours of 100 mg/kg dose administration.
- Assay type: functional
Rule: Efficacy of 70% or more gives 1.0; anything lower gives 0.0.

[
  {
    "molecule": "CN(C)C(=O)Cc1cn(-c2cccc(C(F)(F)F)c2)nc1-c1ccc2c(c1)C(C)(O)c1ccccc1-2 (stereo not given)",
    "class assignment": 1.0
  },
  {
    "molecule": "CN(C)C(=O)Cc1cn(-c2cccc(C(F)(F)F)c2)nc1-c1ccc(-c2ccccc2)cc1",
    "class assignment": 1.0
  },
  {
    "molecule": "CN(C)C(=O)Cc1cn(-c2cccc(C(F)(F)F)c2)nc1-c1ccc2c(c1)CCc1ccccc1-2",
    "class assignment": 1.0
  }
]

Lookup: Evaluate CN(C)C(=O)Cc1cn(-c2cccc(C(F)(F)F)c2)nc1-c1ccc2sc3ccccc3c2c1 : Efficacy at minimum 70%?
Found: 0.0

Lookup: Evaluate CN(C)C(=O)Cc1cn(-c2cccc([N+](=O)[O-])c2)nc1-c1ccc(Cl)c(Cl)c1 : Efficacy at minimum 70%?
Found: 0.0
